- assay: Trial 000015 Part 3: pharmacokinetics, single intranasal and single intravenous cross-over
- experimental-conditions: female, human, plasma, iv, 20 ug, AUCt Geom. mean (% CV), cross-over, 20 μg i.v. infusion over 25 minutes, N = 6
*1 amine or outer side, *2 acyl side, *3 side chain or, on linkers, in order; H or OH if unused. Where a SMILES comes first, the peptide text is derived from it. Bridges are numbered along the chain shown (N, C = ends). [ ]: non-standard residue; d: D form. N(4-F-Bzl)Gly = O=C(O)CNCc1ccc(F)cc1; X1 = O=C(CCC[*:2])[*:1]

>  <molecule>
CC[C@H](C)[C@@H]1NC(=O)[C@H](Cc2ccc(O)cc2)NC(=O)CCCSC[C@@H](C(=O)N(CC(=O)N[C@@H](CC(C)C)C(=O)NCC(N)=O)Cc2ccc(F)cc2)NC(=O)[C@H](CC(N)=O)NC(=O)[C@H](CCC(N)=O)NC1=O [merotocin] (YIQNC[N(4-F-Bzl)Gly]LG-NH2; linker N-5 via X1)

>  <unit-label>
ng·h/mL

>  <AUC(0-t)>
0.146

$$$$
